Attribution: patent US12281162

Target desc: T1, human G-protein-coupled receptor family C group 5 member D (GPRC5D) (human, UniProt Q9NZD1 1-345)
T1 construct: whole, on cells; also called human GPRC5D protein
T1 sequence (Q9NZD1 whole entry): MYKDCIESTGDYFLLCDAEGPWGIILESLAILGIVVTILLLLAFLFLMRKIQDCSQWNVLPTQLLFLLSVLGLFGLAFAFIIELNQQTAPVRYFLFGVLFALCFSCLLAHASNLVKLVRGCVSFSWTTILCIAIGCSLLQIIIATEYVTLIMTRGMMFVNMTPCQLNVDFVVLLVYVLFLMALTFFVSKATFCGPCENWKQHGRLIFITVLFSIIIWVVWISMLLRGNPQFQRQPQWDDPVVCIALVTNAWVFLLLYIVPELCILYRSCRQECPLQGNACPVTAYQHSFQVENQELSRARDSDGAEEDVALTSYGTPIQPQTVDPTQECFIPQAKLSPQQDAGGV
Assay notes: FACS, CHO-K1/GPRC5D
Property name: LogEC50
Note: the reply should be a number with no unit written.

{"Binder": "37B9C4-XI (antibody, V domains shown, also called 37B9C4 (chimeric); 37-XI) VH: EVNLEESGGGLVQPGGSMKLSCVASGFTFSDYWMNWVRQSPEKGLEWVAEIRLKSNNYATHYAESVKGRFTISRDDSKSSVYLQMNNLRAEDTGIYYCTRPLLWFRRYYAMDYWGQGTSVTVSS VL: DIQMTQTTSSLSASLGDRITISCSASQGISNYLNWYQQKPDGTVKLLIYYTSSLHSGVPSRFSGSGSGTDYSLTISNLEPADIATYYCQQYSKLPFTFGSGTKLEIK", "Property name": "LogEC50", "Value observed": 0.236}
{"Binder": "37-H1L1 (antibody, V domains shown, humanized 37B9C4, VH v1 x VL v1; also called 37B9C4 (H1L1)) VH: EVQLVESGGGLVQPGGSLRLSCAASGFTFSDYWMNWVRQAPGKGLEWVAEIRLKSNNYATHYAESVKGRFTISRDNAKNSLYLQMNSLRAEDTAVYYCARPLLWFRRYYAMDYWGQGTLVTVSS VL: DIQMTQSPSSLSASVGDRVTITCSASQGISNYLNWYQQKPGKAPKLLIYYTSSLHSGVPSRFSGSGSGTDFTLTISSLQPEDFATYYCQQYSKLPFTFGQGTKLEIK", "Property name": "LogEC50", "Value observed": 0.357}
{"Binder": "37-H3L2 (antibody, V domains shown, humanized 37B9C4, VH v3 x VL v2) VH: EVQLVESGGGLVQPGGSLRLSCAASGFTFSDYWMNWVRQSPGKGLEWVAEIRLKSNNYATHYAESVKGRFTISRDDSKSSVYLQMNSLRAEDTAVYYCTRPLLWFRRYYAMDYWGQGTLVTVSS VL: DIQMTQSPSSLSASVGDRVTITCSASQGISNYLNWYQQKPGKTVKLLIYYTSSLHSGVPSRFSGSGSGTDYTLTISSLQPEDFATYYCQQYSKLPFTFGQGTKLEIK", "Property name": "LogEC50", "Value observed": 0.315}

Entry under review: 37-H3L1 (antibody, V domains shown, humanized 37B9C4, VH v3 x VL v1) VH: EVQLVESGGGLVQPGGSLRLSCAASGFTFSDYWMNWVRQSPGKGLEWVAEIRLKSNNYATHYAESVKGRFTISRDDSKSSVYLQMNSLRAEDTAVYYCTRPLLWFRRYYAMDYWGQGTLVTVSS VL: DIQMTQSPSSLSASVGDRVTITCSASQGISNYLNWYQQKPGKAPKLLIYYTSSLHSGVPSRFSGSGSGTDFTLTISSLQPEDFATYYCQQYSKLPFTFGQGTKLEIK . Reported LogEC50?
0.292

Entry under review: 37-H1L3 (antibody, V domains shown, humanized 37B9C4, VH v1 x VL v3) VH: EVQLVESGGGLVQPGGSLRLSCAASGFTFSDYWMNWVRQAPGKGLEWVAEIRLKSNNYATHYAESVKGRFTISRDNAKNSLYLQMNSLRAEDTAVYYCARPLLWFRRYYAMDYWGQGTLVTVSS VL: DIQMTQSPSSLSASVGDRITITCSASQGISNYLNWYQQKPGKTVKLLIYYTSSLHSGVPSRFSGSGSGTDYTLTISSLQPEDFATYYCQQYSKLPFTFGSGTKLEIK . Reported LogEC50?
0.233
